Tested on: CAKI-1 renal
Experimental Protocol: NCI tumour cell line growth inhibition, 48 h
Recorded Metric: TGI

| Compound | Recorded Metric | Reading |
| --- | --- | --- |
| N#CN1CCC=C(c2cc3ccccc3[nH]2)C1 | TGI | > 448 µM |
| CCCCCCCCCCCC[n+]1ccc(C(N)=O)cc1 | TGI | 26.2 µM |
| Clc1ccc(SCCCCCCCCCCSc2ccc(Cl)cc2)cc1 | TGI | > 100 µM |
| Cc1cccc2c1C(=O)OC2(C)c1cccc2ccccc12 (configuration not stated) | TGI | > 100 µM |
| O=C(/C=C/c1ccc(C(F)(F)F)cc1)c1ccc(Nc2nc(NCCO)nc(N3CCOCC3)n2)cc1 | TGI | 15.6 µM |
| Cc1ccc(/C=C2\CCCC\C2=N\O)cc1 | TGI | > 100 µM |
| COc1ccc(/C=C/C(=O)c2cc3c(N)c(C(=O)Nc4ccccc4)sc3nc2C)cc1 | TGI | > 50 µM |
| COC1=CC(=O)[C@]2(C)[C@H](C1=O)C(C)[C@H]2c1ccccc1 (some centres not stated) | TGI | > 100 µM |
| Cc1ccc(S(=O)(=O)Nc2nc3ccccc3nc2Nc2ccc3nsnc3c2)cc1 | TGI | > 100 µM |
| COc1ccc2c(c1)CC1c3c(cc4c(c3-2)OCO4)CCN1C (configuration not stated) | TGI | 60.2 µM |
| Cc1cc(-c2nc3cc(O)ccc3s2)ccc1N | TGI | > 100 µM |
| CC(C)(C)[Si](C)(C)OCC#C[C@@]1(O)CCCCC1CC(Sc1ccccc1)Sc1ccccc1 (some centres not stated) | TGI | 23.2 µM |
